Biological target: human prostaglandin H2 synthase type II (COX-2) (Homo sapiens, UniProt P35354)
Sequence (P35354 18-604): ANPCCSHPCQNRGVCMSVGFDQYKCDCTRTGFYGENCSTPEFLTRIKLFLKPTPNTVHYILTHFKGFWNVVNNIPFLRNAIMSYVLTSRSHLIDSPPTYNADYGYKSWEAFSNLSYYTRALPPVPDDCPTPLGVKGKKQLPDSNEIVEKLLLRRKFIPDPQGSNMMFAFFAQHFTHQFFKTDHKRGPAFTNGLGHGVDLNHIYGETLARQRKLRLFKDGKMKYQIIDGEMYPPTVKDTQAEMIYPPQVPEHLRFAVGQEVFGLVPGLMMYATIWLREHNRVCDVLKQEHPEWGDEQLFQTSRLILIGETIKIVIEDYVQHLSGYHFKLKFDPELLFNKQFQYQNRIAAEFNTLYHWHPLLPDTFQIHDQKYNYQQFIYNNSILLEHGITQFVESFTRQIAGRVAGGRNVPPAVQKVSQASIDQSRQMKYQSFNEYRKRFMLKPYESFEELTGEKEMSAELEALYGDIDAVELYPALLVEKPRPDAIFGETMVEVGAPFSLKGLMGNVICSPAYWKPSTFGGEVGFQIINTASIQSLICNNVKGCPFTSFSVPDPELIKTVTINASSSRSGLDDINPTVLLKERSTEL
Test: Human prostaglandin H2 synthase type II (COX-2) whole cell assay (ECV-304 cells, PGE2 by radioimmunoassay)
Assay type: cell-based
Set-up: endogenous in cells; host or cells: ECV-304
Settings: read-out: P2: COX 2 Whole Cell IC50
Procedure: HUMAN PROSTAGLANDIN H2 SYNTHASE TYPE II (COX-2) WHOLE CELL ASSAY (MULTIPLE CONCENTRATIONS) […] Approximately 28 h later, […] PMA and […] ionomycin (both final concentrations) are added to each well and incubated for an additional 16 h. […] Ten minutes later, an aliquot of the supernatant is withdrawn and the amount of PGE2 present quantitated by radioimmunoassay. Activity, reported as percent inhibition of PGE2 produced, is calculated as follows: [formula]
I'd appreciate it if you marked entries T when IC50 is lower than 4000 nM and F when it is not.

Use these answered entries as a reference point.
Req: In plain terms, does CS(=O)(=O)c1ccc(-n2nc3c(c2-c2ccc(Cl)cc2)CCCC3)cc1 [Example 30d] come in under 4000 nM for IC50?
Resp: T

Req: In plain terms, does Clc1ccc(-c2nn(-c3ccccc3)c3c2CCCCC3)cc1 [Example 12] come in under 4000 nM for IC50?
Resp: T

Req: In plain terms, does Clc1ccc(-c2c3c(nn2-c2ccccc2)CCCCC3)cc1 [Example 13-1f] come in under 4000 nM for IC50?
Resp: T

Req: In plain terms, does Fc1ccc(-n2nc(-c3ccc(Cl)cc3)c3c2-c2c([nH]c4ccc(F)cc24)CC3)cc1 [Example 32f] come in under 4000 nM for IC50?
Resp: F

Req: In plain terms, does CS(=O)(=O)c1ccc(-n2nc3c(c2-c2ccc(Cl)cc2)CCC(=O)C3)cc1 [Example 52b] come in under 4000 nM for IC50?
Resp: T

Req: In plain terms, does CS(=O)(=O)c1ccc(-n2nc3c(c2-c2ccc(F)cc2)CCC=C3)cc1 [Example 5b] come in under 4000 nM for IC50?
Resp: F

Req: In plain terms, does Clc1ccc(-c2nn(-c3ccccc3)c3c2CCCC3)cc1 [Example 6-1b] come in under 4000 nM for IC50?
Resp: T

Req: In plain terms, does CS(=O)(=O)c1ccc(-n2nc3c(c2-c2ccc(F)cc2)CC2(CC3)OCCO2)cc1 [Example 30b] come in under 4000 nM for IC50?
Resp: F

Req: In plain terms, does Fc1ccc(-n2nc(-c3ccc(Cl)cc3)c3c2CCCCC3)cc1 [Example 13-1b] come in under 4000 nM for IC50?
Resp: F

Req: In plain terms, does CS(=O)(=O)c1ccc(-n2nc(-c3ccc(Cl)cc3)c3c2C=CCC3)cc1 [Example 4a] come in under 4000 nM for IC50?
Resp: F

***
Req: In plain terms, does CS(=O)(=O)c1ccc(-n2nc3c(c2-c2ccc(Cl)cc2)CCC2OC32)cc1 (centres unmarked) [Example 48d] come in under 4000 nM for IC50?
Resp: F
